target.of.assay: T1, Proteinase-Activated Receptor-2 (human, on human keratinocytes) (human, UniProt P55085 37-397)
T1 sequence (looked up): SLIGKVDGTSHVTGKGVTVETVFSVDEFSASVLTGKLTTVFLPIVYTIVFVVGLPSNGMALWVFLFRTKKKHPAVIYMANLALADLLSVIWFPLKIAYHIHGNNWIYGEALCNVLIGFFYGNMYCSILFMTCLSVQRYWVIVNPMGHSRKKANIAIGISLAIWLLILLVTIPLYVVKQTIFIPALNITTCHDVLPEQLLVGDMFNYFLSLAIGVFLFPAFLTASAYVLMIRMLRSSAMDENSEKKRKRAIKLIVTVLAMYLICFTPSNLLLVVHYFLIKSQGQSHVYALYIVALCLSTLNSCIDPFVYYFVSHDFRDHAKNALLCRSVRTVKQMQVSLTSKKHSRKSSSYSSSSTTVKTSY
assay.summary: cell-based or functional assay
property.measured: Inhibition PAR-2 activity (calcium fluorescence, human keratinocytes, peptide at 1 mg/mL)
Please report the result as a number followed by the unit.

Here is how some binders turned out for Inhibition PAR-2 activity (calcium fluorescence, human keratinocytes, peptide at 1 mg/mL).
Ac-FFWDHV-NH2 [Ac-L-Phe-L-Phe-L-Trp-L-Asp-L-His-L-Val-NH2]: 14.8%
Ac-FMQFIS-NH2 [Ac-L-Phe-L-Met-L-Gln-L-Phe-L-Ile-L-Ser-NH2]: 89.1%
Ac-FFWFIV-NH2 [Ac-L-Phe-L-Phe-L-Trp-L-Phe-L-Ile-L-Val-NH2]: 13.9%

Inhibition PAR-2 activity (calcium fluorescence, human keratinocytes, peptide at 1 mg/mL) reading for Ac-SMQFHV-NH2 [Ac-L-Ser-L-Met-L-Gln-L-Phe-L-His-L-Val-NH2] : 15.1%

Inhibition PAR-2 activity (calcium fluorescence, human keratinocytes, peptide at 1 mg/mL) reading for Ac-FMRFIV-NH2 [Ac-L-Phe-L-Met-L-Arg-L-Phe-L-Ile-L-Val-NH2] : 40.9%

Inhibition PAR-2 activity (calcium fluorescence, human keratinocytes, peptide at 1 mg/mL) reading for Ac-FFRDHV-NH2 [Ac-L-Phe-L-Phe-L-Arg-L-Asp-L-His-L-Val-NH2] : 60.3%

Inhibition PAR-2 activity (calcium fluorescence, human keratinocytes, peptide at 1 mg/mL) reading for Ac-FMRFHV-NH2 [Ac-L-Phe-L-Met-L-Arg-L-Phe-L-His-L-Val-NH2] : 40%

Inhibition PAR-2 activity (calcium fluorescence, human keratinocytes, peptide at 1 mg/mL) reading for Ac-SMWFHS-NH2 [Ac-L-Ser-L-Met-L-Trp-L-Phe-L-His-L-Ser-NH2] : 64.9%

Inhibition PAR-2 activity (calcium fluorescence, human keratinocytes, peptide at 1 mg/mL) reading for Ac-FFRFIV-NH2 [Ac-L-Phe-L-Phe-L-Arg-L-Phe-L-Ile-L-Val-NH2] : 53.7%

Inhibition PAR-2 activity (calcium fluorescence, human keratinocytes, peptide at 1 mg/mL) reading for Ac-SFWFHS-NH2 [Ac-L-Ser-L-Phe-L-Trp-L-Phe-L-His-L-Ser-NH2] : 26.4%

Inhibition PAR-2 activity (calcium fluorescence, human keratinocytes, peptide at 1 mg/mL) reading for Ac-FMQDIV-NH2 [Ac-L-Phe-L-Met-L-Gln-L-Asp-L-Ile-L-Val-NH2] : 9.7%

Inhibition PAR-2 activity (calcium fluorescence, human keratinocytes, peptide at 1 mg/mL) reading for Ac-FFQFIS-NH2 [Ac-L-Phe-L-Phe-L-Gln-L-Phe-L-Ile-L-Ser-NH2] : 59.3%

Inhibition PAR-2 activity (calcium fluorescence, human keratinocytes, peptide at 1 mg/mL) reading for Ac-FMWFIS-NH2 [Ac-L-Phe-L-Met-L-Trp-L-Phe-L-Ile-L-Ser-NH2] : 67.7%

Inhibition PAR-2 activity (calcium fluorescence, human keratinocytes, peptide at 1 mg/mL) reading for Ac-SFQFHS-NH2 [Ac-L-Ser-L-Phe-L-Gln-L-Phe-L-His-L-Ser-NH2] : 9.9%

Inhibition PAR-2 activity (calcium fluorescence, human keratinocytes, peptide at 1 mg/mL) reading for Ac-FMWFHV-NH2 [Ac-L-Phe-L-Met-L-Trp-L-Phe-L-His-L-Val-NH2] : 76.5%

Inhibition PAR-2 activity (calcium fluorescence, human keratinocytes, peptide at 1 mg/mL) reading for Ac-FFRDIV-NH2 [Ac-L-Phe-L-Phe-L-Arg-L-Asp-L-Ile-L-Val-NH2] : 39%
